Test system: OVCAR-3 ovarian
assay.remarks: NCI-60 one-dose screen, 48 h
recorded.conditions: 10 µM unless noted
Compounds without any hit were thinned out: in the full panel of roughly 83,000, 20% have a hit. Calls of active or inactive are those of the source. How the source made its calls: active means growth percent below 10; inactive means the rest.
Your response should consist of one outcome taken from T for active, F for inactive

Per the assay record, what outcome was assigned to CCCCOc1ccc(NC(=O)n2nc(NC(C)=O)c3cc(NC(C)=O)ccc32)cc1 ? F

Per the assay record, what outcome was assigned to Brc1cccc(-c2nc(-c3ccc4c(c3)OCCO4)co2)c1 ? F

Per the assay record, what outcome was assigned to COc1ccc(C(=O)/C=C/c2cc3ccccc3[nH]c2=O)cc1 ? T

Per the assay record, what outcome was assigned to Cn1c2ccccc2c2c3[nH]c(=O)[nH]c(=O)c3c3c4ccccc4n(C)c3c21 ? T

Per the assay record, what outcome was assigned to CC(C)Oc1nc2c(c(=O)n(C)c(=O)n2C)n1C ? F

Per the assay record, what outcome was assigned to Cc1ccc2c(c1)C(=O)/C(=C/c1ccc(OCC(=O)c3ccccc3)cc1)O2 ? F

Per the assay record, what outcome was assigned to O=C1Nc2c(ccc(Cl)c2Cl)/C1=C/c1cc(Br)c(O)c(Br)c1 ? F

====

Tested on: UACC-62 melanoma
assay.remarks: NCI-60 one-dose screen, 48 h
recorded.conditions: 10 µM unless noted
This is part of a sample that, as a whole, favours compounds with a hit. Of some 83,000 tested, about 20% had one in any assay. Active and inactive are the calls of the source. The calls were made as follows: active = growth percent below 10; inactive = the rest.
Your response should consist of one outcome taken from class 1 = active, class 0 = inactive

Per the assay record, what outcome was assigned to CN1CCCCC1CCN1c2ccccc2Sc2ccc(Cl)cc21 (stereo not given) ? class 0

Per the assay record, what outcome was assigned to Cn1c2ccccc2c2c3c(c4c5ccccc5n(CCCCCC#N)c4c21)C(=O)N(O)C3=O ? class 1

Per the assay record, what outcome was assigned to Nc1nc2c(c3ncccc13)C(c1cccc(Br)c1)Cc1ncccc1-2 (stereo not given) ? class 0

Per the assay record, what outcome was assigned to CS(CCCCN=C=S)=NC(=O)c1c(F)c(F)c(F)c(F)c1F (stereo not given) ? class 0

Per the assay record, what outcome was assigned to CCN(CC)CCCCNc1ccc(NCCCCN(CC)CC)c2c1C(=O)c1ccccc1C2=O ? class 0

Per the assay record, what outcome was assigned to COc1ccc2nc3cc(Cl)ccc3c(N3CCN(c4ccnc(N5CCOCC5)n4)CC3)c2c1 ? class 0

Per the assay record, what outcome was assigned to CC/C=C\C[C@H](F)C/C=C1/C(=O)C=C[C@@H]1C/C=C\CCCC(=O)OC ? class 1

Per the assay record, what outcome was assigned to C[C@@]1(N2C(=O)OC[C@@H]2c2ccccc2)C(=O)N([C@H](CC(=O)N2CCC(N3CCCCC3)CC2)C(=O)NCc2cccc(C(F)(F)F)c2)[C@@H]1/C=C/c1ccccc1 ? class 0

More entries:
Per the assay record, what outcome was assigned to COc1cccc(-c2nc3sccn3c2-c2ccnc(NCCCNS(=O)(=O)c3ccccc3)c2)c1 ? class 1

Per the assay record, what outcome was assigned to CC(=O)CC(C)(C)c1ccc(Cl)cc1 ? class 0

Per the assay record, what outcome was assigned to CN1CCN(Cc2ccc(NC(=O)c3[nH]ncc3Nc3ncnc4sccc34)cc2)CC1 ? class 1

Per the assay record, what outcome was assigned to C=C1CCC2C3(C)COC(c4ccc(SC)cc4)OC3CCC2(C)C1C/C=C1/C(=O)OCC1O (stereo not given) ? class 0

Per the assay record, what outcome was assigned to COc1cc(NCCCCN=C(N)N)c2ncccc2c1 ? class 0

Per the assay record, what outcome was assigned to O=C1C=CC(=O)c2c1nc1n2CCCC1 ? class 0

Per the assay record, what outcome was assigned to COc1ccc(C(=O)/C=C/c2c(Cl)c3c(c(OC)c2Cl)OCC(=O)N3)cc1 ? class 0

Per the assay record, what outcome was assigned to COc1ccc(Cl)cc1Nc1nc(C(F)(F)F)ccc1C(=O)N/N=C/c1cccnc1 ? class 0

Per the assay record, what outcome was assigned to O=[N+]([O-])c1cccc(C2CC(c3ccccc3)=Nc3ccccc3S2)c1 (stereo not given) ? class 0

Per the assay record, what outcome was assigned to CCCCCCCCCCCCCCCC(=O)OCC1OC(n2cnc3c(=S)nc(N)[nH]c32)C(OC(=O)CCCCCCCCCCCCCCC)C1OC(=O)CCCCCCCCCCCCCCC (stereo not given) ? class 0

Per the assay record, what outcome was assigned to Cc1ccc(C2CC3c4ccccc4C2C2CCCCN32)cc1 (stereo not given) ? class 0

Per the assay record, what outcome was assigned to c1ccc(Sc2ncnc3ccccc23)cc1 ? class 0

====

Tested on: SW-620 colon
assay.remarks: NCI-60 one-dose screen, 48 h
recorded.conditions: 10 µM unless noted
The panel holds about 83,000 compounds, 20% with a hit somewhere; the sample as a whole holds those more often. Active and inactive are the calls of the source. How the source made its calls: active means growth percent below 10; inactive means the rest.
Your response should consist of one outcome taken from active, inactive

Per the assay record, what outcome was assigned to Cc1ccccc1CCO ? inactive

Per the assay record, what outcome was assigned to COc1cccc(/C=C2/C(=O)N(Cc3ccco3)SC2=S)c1OC ? inactive

Per the assay record, what outcome was assigned to COc1ccc(C/C(C)=C(\c2ccc(Cl)cc2)c2ccc(OCCN3CCCCCC3)cc2)cc1 ? inactive

Per the assay record, what outcome was assigned to O=C(CO[N+](=O)[O-])Nc1ccc(C(=O)/C=C/c2ccc3c(c2)OCO3)cc1 ? inactive

Per the assay record, what outcome was assigned to CCCNc1nc(SC)nc(-c2cccc(N)c2)c1C#N ? inactive

Per the assay record, what outcome was assigned to CSc1nc(NCCO)c(C#N)c(-c2cccc(N)c2)n1 ? inactive

Per the assay record, what outcome was assigned to Cn1c(=O)c2[nH]c(C(O)C(O)C(O)C(O)CO)nc2n(C)c1=O (stereo not drawn) ? inactive

Per the assay record, what outcome was assigned to C=C1C(=O)O[C@H]2[C@H]1CC/C(Cn1cc(Cn3ccc4cc(Cl)ccc43)nn1)=C\CC[C@@]1(C)O[C@@H]21 ? active

Per the assay record, what outcome was assigned to COc1cnc2c(c1)C(=O)c1c-2n(CCCBr)c(=O)c2cc([N+](=O)[O-])ccc12 ? inactive

Per the assay record, what outcome was assigned to CS(CCCCN=C=S)=NC(=O)c1c(F)c(F)c(F)c(F)c1F (stereo not drawn) ? inactive

More entries:
Per the assay record, what outcome was assigned to C=C1CC[C@@H]2[C@](C)(COC(C)=O)[C@H](OC(C)=O)CC[C@@]2(C)[C@@H]1CC(Nc1ccc(S(=O)(=O)Nc2nc(C)cc(C)n2)cc1)C1=CCOC1=O (stereo partly drawn) ? inactive

Per the assay record, what outcome was assigned to CC1(C)CC(=O)C(c2c(-c3ccccc3)[nH]c3[nH]c(=S)[nH]c(=O)c23)=C(O)C1 ? inactive

====

System: MCF7 breast
assay.remarks: NCI-60 one-dose screen, 48 h (100 = growth as untreated, 0 = no growth, -100 = all killed)
recorded.conditions: 10 µM unless noted
Compounds without any hit were thinned out: in the full panel of roughly 83,000, 20% have a hit.
Give growth for every item shown.
One number for each entry, in %.

Answered examples (6):
Reported growth of COc1ccc(-n2cc(-c3ccccc3)c3c(SCC(=O)N/N=C/c4ccc([N+](=O)[O-])cc4)ncnc32)cc1 : 92.5

Reported growth of CN1CCN(Cc2ccc(NC(=O)c3cncc(C#Cc4cncc5nccnc45)c3)cc2C(F)(F)F)CC1 : 33.8

Reported growth of Cc1cc(-c2nc3ccccc3s2)ccc1NC(=O)COc1ccc(Cl)cc1 : 17.5

Reported growth of CCOC(=O)/C=C/C(=O)[C@H](CC(C)C)NC(=O)[C@H](Cc1ccccc1)NC(=O)OCc1ccccc1 : 19.7

Reported growth of COc1cc(OC)c(/C=C/S(=O)(=O)Cc2ccc(OC)c(N)n2)c(OC)c1 : 12.9

Reported growth of CCc1ccccc1NC(=O)c1sc2nc3c(cc2c1N)C(=O)CCC3 : 8.92

List growth for every entry below, keeping the order given.
1. Cc1ccc(S(=O)(=O)n2cc(-c3csc(-c4cn(C)c5ncccc45)n3)c3ccccc32)cc1
2. O=C(CN1CCOCC1)Nc1ccc(Cn2nnc3c2C(=O)c2nnn(Cc4ccc(NC(=O)CN5CCOCC5)cc4)c2C3=O)cc1
3. N=S(=O)(NC(=O)c1ccc(Cl)cc1Cl)c1ccc(Br)s1 (centres undefined)

19.8
-62
91.5

====

Give growth for every item shown.
Test system: OVCAR-4 ovarian
assay.remarks: NCI-60 one-dose screen, 48 h (100 = growth as untreated, 0 = no growth, -100 = all killed)
recorded.conditions: 10 µM unless noted
About 83,000 compounds went through this panel and 20% of them were active in at least one assay; those are over-represented in the sample as a whole.
Answers are plain numbers, in %.

Value (growth, OVCAR-4 ovarian) for record Cc1ccc(-c2nc(/C=N/Nc3cc(C)nc4ccc(Cl)cc34)c(C)o2)cc1 = -90.8

Value (growth, OVCAR-4 ovarian) for record Nc1cccc(NC(=O)C(=O)Nc2cccc(N)c2)c1 = 126

Value (growth, OVCAR-4 ovarian) for record N#Cc1c2c(nc3n[nH]c(N)c13)CCCC2 = 101

Value (growth, OVCAR-4 ovarian) for record COc1cnc2c(c1)C(=O)c1c-2n(CCCN2CCN(C)CC2)c(=O)c2cc([N+](=O)[O-])ccc12 = -81.7

Value (growth, OVCAR-4 ovarian) for record O=C(COc1cccc(/C=C2/Oc3ccccc3C2=O)c1)Nc1nccs1 = 87.5

List growth for every entry below, keeping the order given.
1. CC(C)[C@@H]1CC[C@]2(C(=O)NCCCCN=C(N)N)CC[C@]3(C)[C@H](CC[C@@H]4[C@@]5(C)CCC(=O)C(C)(C)[C@@H]5CC[C@]43C)[C@@H]12
2. CCN(CC)CC(O)CNc1c2ccc([N+](=O)[O-])cc2nc2cc(OC)c(OC)cc12 (centres undefined)
3. Cn1c2ccccc2c2c3c(c4c5ccccc5n(CCCCCC#N)c4c21)C(=O)N(O)C3=O
4. O=C1c2c[n+](Cc3ccccc3)ccc2-c2nc3ccccc3c3ccnc1c23

1: 84.3; 2: -39.3; 3: 28.4; 4: -38.7

Just for reference, PubChem BioAssay (NCI) is where these values come from.
